- experimentalProtocol: Pharmacokinetics of orally administered squalamine (ENT-01), Phase 2 trial
- Assay type: in vivo
- protocolConditions: human, in vivo, po, 175 mg, Stage 2, 175 mg oral daily, 5 patients (2 visits each); read-out: Tmax (median value)
reportedProperty: Tmax

{"compound": "CC(C)[C@@H](CC[C@@H](C)[C@H]1CC[C@H]2[C@@H]3[C@H](O)C[C@H]4C[C@@H](NCCCNCCCCN)CC[C@]4(C)[C@H]3CC[C@]12C)OS(=O)(=O)O (single isomer, unassigned) [squalamine (ENT-01)]", "endpointResult": "2 h"}

---

- experimentalProtocol: Pharmacokinetics of orally administered squalamine (ENT-01), Phase 2 trial
- Format: in vivo
- protocolConditions: human, plasma, po, 125 mg, Stage 1, 125 mg oral, 9 patients, mean, approximate

{"compound": "CC(C)[C@@H](CC[C@@H](C)[C@H]1CC[C@H]2[C@@H]3[C@H](O)C[C@H]4C[C@@H](NCCCNCCCCN)CC[C@]4(C)[C@H]3CC[C@]12C)OS(=O)(=O)O (single isomer, unassigned) [squalamine (ENT-01)]", "readoutUnits": "ng/mL", "Cmax": 9.63}

---

- experimentalProtocol: Pharmacokinetics of orally administered squalamine (ENT-01), Phase 2 trial
- Format: in vivo
- protocolConditions: human, plasma, po, 125 mg, Stage 1, 125 mg oral, n = 4; read-out: T½ (converted)
- Experimental: PK data were collected on the 10 patients enrolled in Stage 1 and 10 patients enrolled in Stage 2 to determine the extent of systemic absorption. In Stage 1, PK data were obtained at each visit, pre-medication, at 1, 2, 4, 8 and 24 hours (Table 11). In Stage 2, PK was measured on days 1 and 6 of the randomization period pre-medication, at 1, 2, 4 and 8 hours (Table 12). The mean Cmax, Tmax and T1/2 and AUC of the squalamine ion following squalamine (ENT-01) oral dosing for Stage 1 patients. […]
reportedProperty: half-life (h)

{"molecule": "CC(C)[C@@H](CC[C@@H](C)[C@H]1CC[C@H]2[C@@H]3[C@H](O)C[C@H]4C[C@@H](NCCCNCCCCN)CC[C@]4(C)[C@H]3CC[C@]12C)OS(=O)(=O)O (single isomer, unassigned) [squalamine (ENT-01)]", "reportedProperty": "half-life", "endpointResult": 3.9}

---

- experimentalProtocol: Pharmacokinetics of orally administered squalamine (ENT-01), Phase 2 trial
- Assay type: in vivo
- protocolConditions: human, in vivo, po, 50 mg, Stage 1, 50 mg oral, 10 patients, mean, approximate

{"compound": "CC(C)[C@@H](CC[C@@H](C)[C@H]1CC[C@H]2[C@@H]3[C@H](O)C[C@H]4C[C@@H](NCCCNCCCCN)CC[C@]4(C)[C@H]3CC[C@]12C)OS(=O)(=O)O (single isomer, unassigned) [squalamine (ENT-01)]", "readoutUnits": "ng/mL", "Cmax": 3.73}

---

- experimentalProtocol: Pharmacokinetics of orally administered squalamine (ENT-01), Phase 2 trial
- Assay type: in vivo
- protocolConditions: human, in vivo, po, 50 mg, Stage 1, 50 mg oral, 10 patients; read-out: AUC0-8hr

{"molecule": "CC(C)[C@@H](CC[C@@H](C)[C@H]1CC[C@H]2[C@@H]3[C@H](O)C[C@H]4C[C@@H](NCCCNCCCCN)CC[C@]4(C)[C@H]3CC[C@]12C)OS(=O)(=O)O (single isomer, unassigned) [squalamine (ENT-01)]", "readoutUnits": "ng·h/mL", "AUC(0-t)": 18.5}

---

- experimentalProtocol: Pharmacokinetics of orally administered squalamine (ENT-01), Phase 2 trial
- Assay type: in vivo
- protocolConditions: human, plasma, po, 200 mg, Stage 1, 200 mg oral, 6 patients; read-out: AUC0-8hr

{"molecule": "CC(C)[C@@H](CC[C@@H](C)[C@H]1CC[C@H]2[C@@H]3[C@H](O)C[C@H]4C[C@@H](NCCCNCCCCN)CC[C@]4(C)[C@H]3CC[C@]12C)OS(=O)(=O)O (single isomer, unassigned) [squalamine (ENT-01)]", "AUC(0-t)": "78.3 ng·h/mL"}

---

- experimentalProtocol: Pharmacokinetics of orally administered squalamine (ENT-01), Phase 2 trial
- Format: in vivo
- protocolConditions: human, in vivo, po, 175 mg, Stage 2, 175 mg oral daily, n = 6; read-out: T1/2 (converted)
reportedProperty: half-life (h)

{"compound": "CC(C)[C@@H](CC[C@@H](C)[C@H]1CC[C@H]2[C@@H]3[C@H](O)C[C@H]4C[C@@H](NCCCNCCCCN)CC[C@]4(C)[C@H]3CC[C@]12C)OS(=O)(=O)O (single isomer, unassigned) [squalamine (ENT-01)]", "reportedProperty": "half-life", "readoutUnits": "h", "endpointResult": 10}

---

- experimentalProtocol: Pharmacokinetics of orally administered squalamine (ENT-01), Phase 2 trial
- Assay type: in vivo
- protocolConditions: human, in vivo, po, 150 mg, Stage 1, 150 mg oral, 7 patients; read-out: AUC0-8hr
- Description: PK data were collected on the 10 patients enrolled in Stage 1 and 10 patients enrolled in Stage 2 to determine the extent of systemic absorption. In Stage 1, PK data were obtained at each visit, pre-medication, at 1, 2, 4, 8 and 24 hours (Table 11). In Stage 2, PK was measured on days 1 and 6 of the randomization period pre-medication, at 1, 2, 4 and 8 hours (Table 12). The mean Cmax, Tmax and T1/2 and AUC of the squalamine ion following squalamine (ENT-01) oral dosing for Stage 1 patients. […]

{"molecule": "CC(C)[C@@H](CC[C@@H](C)[C@H]1CC[C@H]2[C@@H]3[C@H](O)C[C@H]4C[C@@H](NCCCNCCCCN)CC[C@]4(C)[C@H]3CC[C@]12C)OS(=O)(=O)O (single isomer, unassigned) [squalamine (ENT-01)]", "AUC(0-t) [ng·h/mL]": 31.5}

---

- experimentalProtocol: Pharmacokinetics of orally administered squalamine (ENT-01), Phase 2 trial
- Assay type: in vivo
- protocolConditions: human, plasma, po, 75 mg, Stage 2, 75 mg oral daily, 1 patient (2 visits); read-out: AUC0-8 hr

{"compound": "CC(C)[C@@H](CC[C@@H](C)[C@H]1CC[C@H]2[C@@H]3[C@H](O)C[C@H]4C[C@@H](NCCCNCCCCN)CC[C@]4(C)[C@H]3CC[C@]12C)OS(=O)(=O)O (single isomer, unassigned) [squalamine (ENT-01)]", "readoutUnits": "µg·h/mL", "AUC(0-t)": 0.059}

---

- experimentalProtocol: Pharmacokinetics of orally administered squalamine (ENT-01), Phase 2 trial
- Assay type: in vivo
- protocolConditions: human, in vivo, po, 175 mg, Stage 1, 175 mg oral, 7 patients; read-out: Tmax (median value)

{"compound": "CC(C)[C@@H](CC[C@@H](C)[C@H]1CC[C@H]2[C@@H]3[C@H](O)C[C@H]4C[C@@H](NCCCNCCCCN)CC[C@]4(C)[C@H]3CC[C@]12C)OS(=O)(=O)O (single isomer, unassigned) [squalamine (ENT-01)]", "Tmax, h": 2}

---

- experimentalProtocol: Pharmacokinetics of orally administered squalamine (ENT-01), Phase 2 trial
- Type: in vivo
- protocolConditions: human, plasma, po, 100 mg, Stage 1, 100 mg oral, 9 patients, mean, approximate

{"compound": "CC(C)[C@@H](CC[C@@H](C)[C@H]1CC[C@H]2[C@@H]3[C@H](O)C[C@H]4C[C@@H](NCCCNCCCCN)CC[C@]4(C)[C@H]3CC[C@]12C)OS(=O)(=O)O (single isomer, unassigned) [squalamine (ENT-01)]", "Cmax, ng/mL": 6.18}

---

- experimentalProtocol: Pharmacokinetics of orally administered squalamine (ENT-01), Phase 2 trial
- Format: in vivo
- protocolConditions: human, plasma, po, 75 mg, Stage 1, 75 mg oral, 9 patients; read-out: AUC0-16hr

{"molecule": "CC(C)[C@@H](CC[C@@H](C)[C@H]1CC[C@H]2[C@@H]3[C@H](O)C[C@H]4C[C@@H](NCCCNCCCCN)CC[C@]4(C)[C@H]3CC[C@]12C)OS(=O)(=O)O (single isomer, unassigned) [squalamine (ENT-01)]", "AUC(0-t) (ng·h/mL)": 29.8}

---

- experimentalProtocol: Pharmacokinetics of orally administered squalamine (ENT-01), Phase 2 trial
- Assay type: in vivo
- protocolConditions: human, plasma, po, 200 mg, Stage 1, 200 mg oral, 6 patients, mean, approximate

{"molecule": "CC(C)[C@@H](CC[C@@H](C)[C@H]1CC[C@H]2[C@@H]3[C@H](O)C[C@H]4C[C@@H](NCCCNCCCCN)CC[C@]4(C)[C@H]3CC[C@]12C)OS(=O)(=O)O (single isomer, unassigned) [squalamine (ENT-01)]", "Cmax, ng/mL": 15.1}

---

- experimentalProtocol: Pharmacokinetics of orally administered squalamine (ENT-01), Phase 2 trial
- Type: in vivo
- protocolConditions: human, plasma, po, 200 mg, Stage 1, 200 mg oral, n = 5; read-out: T½ (converted)

{"compound": "CC(C)[C@@H](CC[C@@H](C)[C@H]1CC[C@H]2[C@@H]3[C@H](O)C[C@H]4C[C@@H](NCCCNCCCCN)CC[C@]4(C)[C@H]3CC[C@]12C)OS(=O)(=O)O (single isomer, unassigned) [squalamine (ENT-01)]", "half-life [h]": 9}
